meta.source: patent US20250339569A1

- targetUnderTest: human carbonic anhydrase IX (hCAIX-Fc) (Homo sapiens, UniProt Q16790)
- Construct: purchased SinoBliological (Sino Biological) 10107-H02H
- experimentSummary: Surface plasmon resonance assay with hCAIX-Fc
- Format: binding
- condition: SPR, hCAIX-Fc captured, 25° C.; read-out: pKD category (activity) (converted)
Starred links: 1 amine or outer side, 2 acyl side, 3 side chain; linkers in the order of their positions; H or OH if unused. Positions of bridges follow the written chain, without caps; N, C: chain ends. Non-standard residues stand in square brackets, D forms with d. Residues, ends and D or L forms follow the SMILES beside them. *: point of attachment. DOTA = O=C(O)CN1CCN(CC(=O)O)CCN(CC(=O)*)CCN(CC(=O)O)CC1; mXylylene = c1cc(C[*:1])cc(C[*:2])c1; dNMeA = CN[C@H](C)C(=O)O; Dap = NC[C@H](N)C(=O)O
measuredAttribute: Kd

Query :: Given CC(=O)N[C@H](C(=O)N[C@@H](Cc1ccc(O)cc1)C(=O)N[C@H]1CSCc2cccc(c2)CSC[C@@H](C(N)=O)NC(=O)[C@H](CO)NC(=O)[C@H](Cc2c[nH]c3ccccc23)NC(=O)[C@H]([C@@H](C)O)NC(=O)[C@H](CC(C)C)NC(=O)[C@H](Cc2c[nH]c3ccccc23)NC(=O)[C@H](CC(=O)O)NC(=O)[C@H]2CCCN2C(=O)[C@H](CCC(=O)O)NC1=O)C(C)C [3BP-3565] (Ac-VYCE[dP]DWLTWSC-NH2; linker 3-12 via mXylylene) , state its recorded Kd.
Result :: < 10 nM

Query :: Given CC(C)C[C@@H]1NC(=O)[C@H](Cc2c[nH]c3ccccc23)NC(=O)[C@H](CC(=O)O)NC(=O)[C@H]2CCCN2C(=O)[C@H](CCC(=O)O)NC(=O)[C@@H]2CSCc3cccc(c3)CSC[C@@H](C(N)=O)NC(=O)[C@H](CNC(=O)C[C@H](NC(=O)[C@@H](NC(=O)CN3CCN(CC(=O)O)CCN(CC(=O)O)CCN(CC(=O)O)CC3)C(C)C)C(=O)N2)NC(=O)[C@H](Cc2c[nH]c3ccccc23)NC(=O)[C@H]([C@@H](C)O)NC1=O [3BP-4264] ({DOTA}-VDCE[dP]DWLTW[Dap]C-NH2; lactam 2-11; linker 3-12 via mXylylene) , state its recorded Kd.
Result :: < 10 nM

Query :: Given CC(=O)N[C@H](C(=O)N[C@@H](Cc1ccc(O)cc1)C(=O)N[C@H]1CSCc2cccc(c2)CSC[C@@H](C(N)=O)NC(=O)[C@H](C)NC(=O)[C@H](Cc2c[nH]c3ccccc23)NC(=O)[C@H]([C@@H](C)O)NC(=O)[C@H](CC(C)C)NC(=O)[C@H](Cc2c[nH]c3ccccc23)NC(=O)[C@H](CC(=O)O)NC(=O)[C@@H](C)N(C)C(=O)[C@H](CCC(=O)O)NC1=O)C(C)C [3BP-3281] (Ac-VYCE[dNMeA]DWLTWAC-NH2; linker 3-12 via mXylylene) , state its recorded Kd.
Result :: < 10 nM
